Every entry's value here was drawn from patent US20230340012A1.

System: cancer cells
Experiment: MTT cytotoxic assay of esterification products (Cytotoxicity activity)
Format: cell-based, human
Settings: esterification products of core compound E4A with Octanoyl chloride (Oct = Octanoyl)
observed_property: Cytotoxicity activity

- CC1(C)CC2C3=CCC4C5(C)CCC(O)C(C)(CO)C5CCC4(C)C3(C)CC(O)C2(CO)C(OC(=O)c2ccccc2)C1OC(=O)c1ccccc1 (centres unmarked): moderate
- CC1(C)CC2C3=CCC4C5(C)CCC(O)C(C)(CO)C5CCC4(C)C3(C)CC(O)C2(COC(=O)c2ccccc2)C(OC(=O)c2ccccc2)C1O (centres unmarked): moderate
- CC1(C)CC2C3=CCC4C5(C)CCC(O)C(C)(COC(=O)c6ccccc6)C5CCC4(C)C3(C)CC(O)C2(CO)C(OC(=O)c2ccccc2)C1O (centres unmarked): moderate
- CC1(C)CC2C3=CCC4C5(C)CCC(O)C(C)(COC(=O)c6ccccc6)C5CCC4(C)C3(C)CC(OC(=O)c3ccccc3)C2(COC(=O)c2ccccc2)C(OC(=O)c2ccccc2)C1O (centres unmarked): weak
- CC1(C)CC2C3=CCC4C5(C)CCC(O)C(C)(CO)C5CCC4(C)C3(C)CC(OC(=O)c3ccccc3)C2(COC(=O)c2ccccc2)C(O)C1O (centres unmarked): moderate
- CC1(C)CC2C3=CCC4C5(C)CCC(O)C(C)(CO)C5CCC4(C)C3(C)CC(O)C2(COC(=O)c2ccccc2)C(O)C1OC(=O)c1ccccc1 (centres unmarked): moderate

Read the next record carefully.
Q: I'd like to know its Cytotoxicity activity. The molecule in question is CC1(C)CC2C3=CCC4C5(C)CCC(O)C(C)(COC(=O)c6ccccc6)C5CCC4(C)C3(C)CC(O)C2(CO)C(OC(=O)c2ccccc2)C1OC(=O)c1ccccc1 (centres unmarked)
Result: moderate
